Tested on: nucleoside uptake (3H-Thymidine)
assay-explanation: Nucleoside uptake assay (uptake) using 3H-Thymidine, IC50, cell line as indicated in each table (none given in Table 8)
Type: cell-based
assay-conditions: 3H-Thymidine uptake; cell line not given
Record form. Attribute: pIC50. Fill in for each entry.
One number for each entry, as −log10 of the molar value.

Please review the entries below; each comes with its answer.
{"structure-notation": "CCC[C@@H]1NC(=O)COc2cccc(c2)[C@@H](CCc2ccc(OC)c(OC)c2)OC(=O)[C@@H]2CCCCN2C(=O)C(=O)C(C)(C)COC(=O)/C=C/CCN(C)C(=O)[C@H]([C@@H](C)CC)N(C)C(=O)[C@@H]2CCCN2C(=O)[C@@H](Cc2ccccc2)N(C)C1=O", "pIC50": 6.76}
{"structure-notation": "CC[C@H](C)[C@H]1C(=O)N(C)CC/C=C/C(=O)OCC(C)(C)C(=O)C(=O)N2CCCC[C@H]2C(=O)O[C@H](CCc2ccc(OC)c(OC)c2)c2cccc(c2)OCC(=O)N[C@@H](C)C(=O)N(C)[C@H](Cc2ccccc2)C(=O)N2CCC[C@H]2C(=O)N1C", "pIC50": 7.47}
{"structure-notation": "CC[C@H](C)[C@H]1C(=O)N(C)CC/C=C/C(=O)OCC(C)(C)C(=O)C(=O)N2CCCC[C@H]2C(=O)O[C@H](CCc2ccc(OC)c(OC)c2)c2cccc(c2)NC(=O)CCC(=O)N[C@@H](c2ccccc2)C(=O)N(C)[C@H](Cc2ccccc2)C(=O)N2CCC[C@H]2C(=O)N1C", "pIC50": 7.00}

Kindly consider the entry below.
Report pIC50 for `COc1ccc(CC[C@H]2OC(=O)[C@@H]3CCCCN3C(=O)C(=O)C(C)(C)COC(=O)/C=C/CCN(C)C(=O)[C@H](C(C)C)N(C)C(=O)[C@@H]3CCCN3C(=O)[C@@H](Cc3ccccc3)N(C)C(=O)[C@H](CC(C)C)NC(=O)CCC(=O)Nc3cccc2c3)cc1OC` please. 7.27
